Each recorded value in this set is attributed to ChEMBL document CHEMBL1166016.

System: Coxsackievirus B3
ASSAY_NOTES: Antiviral activity against Coxsackievirus B3 infected in african green monkey […] assessed as inhibition of virus-induced cytopathic effect after 3 days by MTS assay
Format: functional, organism-based
For each of the molecules below, state its EC90.
Note: unit µM is implicit; provide only the numeric part.

The reported EC90 value, Coxsackievirus B3, for Clc1ncnc2c1ncn2[C@@H]1C[C@@H]2C[C@H]1[C@@H]1O[C@@H]21 (relative stereo) reads 3.46

Coxsackievirus B3 assay, molecule F[C@H]1C[C@H]2C[C@@H]1C[C@@H]2n1cnc2c(Cl)ncnc21 (relative stereo) , recorded EC90 = 1.96

The molecule FC1(F)C[C@@H]2C[C@@H](n3cnc4c(Cl)ncnc43)[C@H]1C2 (relative stereo) , tested on Coxsackievirus B3, showed EC90 of 34.4
